Light resistance (durability) by entry:
assay: Aging promotion testing: sunlight 30 min / fading one hour cycles, 10 days (durability, coloring degree); format: physicochemical; settings: single chromene compound in polymer, 10 days aging; Table 5
Give the value, in units of %, as a plain number.

Example entries and their recorded answers appear below.
Record request: Light resistance (durability) value, item COc1ccc(C2(c3ccc(OC)cc3)C=Cc3c(C)cc4cc(-c5ccccc5)ccc4c3O2)cc1 [Compound 37]
97

Same again, this time with COc1ccc(C2(c3cccs3)C=Cc3c(C)cc4ccccc4c3O2)cc1 (centres unmarked) [Compound 32]
96

How about this compound: CC(C)c1cc2ccccc2c2c1C=CC1(O2)C2CCC1CC2 (centres unmarked) [Compound 19]
92

Another compound to check: COc1ccc(C2(c3ccc(OC)c(F)c3)C=Cc3c(C(C)C)cc4ccccc4c3O2)cc1F [Compound 14]
99

Moving on to the next compound: CC(C)(C)c1cc2ccccc2c2c1C=CC(c1ccccc1)(c1cc3ccccc3s1)O2 (centres unmarked) [Compound 11]
97

Also CC(C)(C)c1cc2ccccc2c2c1C=CC(c1ccccc1)(c1cccs1)O2 (centres unmarked) [Compound 6] , if possible.
97

Proceed to CCOC(=O)c1c2c(c3ccccc3c1C)OC1(C=C2)C2CCCC1CCC2 (centres unmarked) [f, reference compound]
96

Could you now look at the following compound, please?
Which value of Light resistance (durability) has been reported for Cc1cc2ccccc2c2c1C=CC(c1ccccc1)(c1ccccc1)O2 [c, reference compound] in the records?
96
